system-name: Large T antigen (Simian virus 40)
measurement-protocol: SV40 large T antigen inhibitors, biochemical (AID 1903)
applied-conditions: SV40 large T antigen ATPase/helicase inhibition assay; at 20 µM; active compounds read high
The whole screen tested about 310,000 compounds, of which about 1,200 (0.39%) were called active. These entries were drawn from the full list. Results with a measured potency or affinity are listed apart.
measured-endpoint: inhibition (%)
# unit: % | format: bare number

compound | result-unit | inhibition
COc1cc(/C=C2/C(=N)N3N=C(C)SC3=NC2=O)ccc1OS(=O)(=O)c1ccc(C)cc1 | % | 3.08
C=C(C)CSc1nc2c(cc1C#N)CCC2 | % | 7.26
CSc1nc(-c2ccccc2)nc(NC(=O)c2ccccc2)c1C(C)=O | % | 5.31
Cc1c(CC(=O)NCCCC(=O)O)c(=O)oc2cc3oc4c(c3cc12)CCCC4 | % | 10
CCOc1cc2sc(N3CCC(C(=O)NCCCN4CCCC4=O)CC3)nc2cc1Br | % | 12.1
CCC1=NN2C(=N)/C(=C/c3ccc(OS(=O)(=O)c4ccc(C)cc4)c(OC)c3)C(=O)N=C2S1 | % | 15.3
O=C(CN1CCCCC1)N1c2ccccc2CCc2ccccc21 | % | 0.59
CCOc1cc(/C=C2/C(=N)N3N=C(CC)SC3=NC2=O)ccc1OC(=O)c1ccco1 | % | 1.88

Query: Return the recorded inhibition value; entry: C=CCOc1ccc(C2c3c(oc4ccccc4c3=O)C(=O)N2CCCN2CCOCC2)cc1 (configuration not stated)
Response: 10.1

Query: For the compound COc1ccccc1NC(=O)c1sc2nc(N3CCOCC3)c3c(c2c1N)CCCC3 , give its measured inhibition value.
Response: 15.5

Query: Read off the recorded inhibition for CC(=O)NC(C)Cc1cn(Cc2ccccc2)c2ccccc12 (configuration not stated)
Response: 19.1

Query: // Input: O=C(CCl)N1c2ccccc2CCc2ccccc21 . Output its inhibition only.
Response: 8.1

Query: Let me know recorded inhibition for Cc1cccc(N2CCN(C(=O)CCCn3c(=O)c4cccn4c4cccnc43)CC2)c1C , thanks.
Response: 9.66

Query: Tell me its inhibition given O=C(NC1=NN(c2ccccc2)CC1)Nc1ccccc1F as the entry.
Response: -6.18

Query: Please list inhibition recorded for the compound CCNC(=O)O/N=C(\C)c1sc(-c2ccc(Cl)cc2)nc1C
Response: 1.49

Query: Tell me inhibition reported for COc1ccc(CNC(=O)CCCn2nc(C)c3c(C)n(-c4ccccc4)nc3c2=O)cc1
Response: 12.9

Query: Write down inhibition measured for item COc1cc(/C=C2\SC(c3ccc(C)cc3)=NC2=O)ccc1O
Response: 23.4

Cited source for all entries: PubChem BioAssay AID1903
